- tested_system: SARS-CoV-2 Wuhan-Hu-1 RBD (SARS-CoV-2 Wuhan-Hu-1, UniProt P0DTC2)
- method_description: BLI
- assay_conditions: both partners purified
pKd: −log10 of the molar value.
Outcome: Criterion met for pKd of at least 8; Criterion not met for anything lower.

• V028 (antibody, V domains shown, IgG; donor BRA14; source: recombinant monoclonal IgG, produced and purified as previously described) VH: QVQLVESGGGVVQPGRSLRLSCAASGFTFSSYGMHWVRQAPGKGLEWVAVVSFDGSDKYYADSVKGRFTISRDNSKNTLYLQMNSLRAEDTALYYCAKGGYSYAYPRYYFDYWGQGTLVTVSS VL: DIQMTQSPSSLSASVGDRVTITCQASQDISNYLNWYQQKPGKAPKLLIYDASNLETGVPSRFSGSGSGTDFTFTISSLQPEDIATYYCQQHDNLPITFGQGTRLEIK = Criterion not met
• V063 (antibody, V domains shown, IgG; donor BRA15; source: recombinant monoclonal IgG, produced and purified as previously described) VH: QVQLVESGGGVVQPGRSLRLSCAASGFPFSSFGMHWVRQAPGKGLEWVAVISSDGSNKYYADSVKGRFTISRDNSKNTLYLQMNSLRAEDTAVYYCAKEFTYVVVTAFWGTENFDIWGQGTMVTVSS VL: DIQMTQSPSTLSASVGDRVTITCRASQSISSWLAWYQQKPGKAPNLLIYKASALESGVPSRFSGSGSGTEFTLTISSLQPDDFATYYCQQYNSYPITFGQGTRLEIK = Criterion met
• V045 (antibody, V domains shown, IgG; donor BRA15; source: recombinant monoclonal IgG, produced and purified as previously described) VH: QVQLVQSGAEVKKPGASVKVSCKASTYTFTSYYIHWVRQAPGQGLEWMGIINPSGGSTSYAQNFQGRVTMTRDTSTSTVYMELSSLRSEDTAVYYCARGVLIPAAGGDFDYWGQGTLVTVSS VL: QSALTQPRSVSGSPGQSVTISCTGTSSDVGGYKYVSWYQQHPGKAPKLMIYDVSKRPSGVPDRFSGSKSGNTASLTISGLQAEDEADYYCCSYAGSYSWVFGGGTKLTVL = Criterion met
• V003 (antibody, V domains shown, IgG; donor BRA13; source: recombinant monoclonal IgG, produced and purified as previously described) VH: EVQLVQSGAEVKKPGESLKISCLGSGYSFTSYWIGWVRQMPGKGLEWMGIIFPADSDTRYSPSFQGQVIISADKSISTAYLQWSSLKASDTAMYYCARLREFGDYYYYGMDVWGQGTTVTVSS VL: DIQLTQSPSSLSASVGDRVTITCRASQGISSYLAWYQQKPGKAPKLLIYAASTLQSGVPSRFSGSGSGTDFTLTISSLQPEDFATYYCQQLNSYPDFGQGTKLEIK = Criterion not met
• V048 (antibody, V domains shown, IgG; donor BRA15; source: recombinant monoclonal IgG, produced and purified as previously described) VH: QVQLVQSGAEVKKPGASVKVSCKASGYTFTSYVISWVRQAPGQGLEWMGWISAYNGNTNYAQKLQGRVTMTTDTSTSTAYMELRSLRSDDTAVYYCARDVAGITMIVEEVIDAFDIWGQGTMVTVSS VL: SYELTQPSSVSVSPGQTARITCSGDVLAKKYARWFQQKPGQAPVLVIYKDSERPSGIPERFSGSSSGTTVTLTISGAQVEDEADYYCFSAPDNNRVFGGGTKLTVL = Criterion met
• V019 (antibody, V domains shown, IgG; donor BRA13; source: recombinant monoclonal IgG, produced and purified as previously described) VH: QVQLVQSGAEVKKPGSSVKVSCKASGGTFSTYTFSWVRQAPGQGLEWMGRIIPILGIANYAQKFQGRITITADKSTSTAYMELSSLRSEDTAVYYCAWGSYSYGYFVDIWGQGTMVTVSS VL: DIVMTQTLLSLSVTPGQPASISCKSSQSLLHSDGKTYLYWYLQKPGQSPQLLIYEVSSRFSGVPDRFSGSGSGTDFTLKISRVEAEDVGVYYCMQGIQFHWTFGQGTKLEIK = Criterion met
• V055 (antibody, V domains shown, IgG; donor BRA15; source: recombinant monoclonal IgG, produced and purified as previously described) VH: QVQLVQSGAEVKKPGSSVKVSCKASGGTFSSYIINWVRQAPGQGLEWMGRIIPILGIANYAQKFHGRVTITADESTSTAYMELSSLRSEDTAVYYCARGGPDPSDSNYAALLYYYYMDVWGKGTTVTVSS VL: QSVLTQPPSVSAAPGQKVTISCSGSSSNIGSYYVSWYQKLPGTAPKLLIHENNKRPSGIPDRISGSKSGTSATLGITGLQTGDEADYYCGTWDSSLSDVVFGGGTKLTVL = Criterion met
